I'd appreciate it if you could supply relative viability values for the items below.
# System: NCI-H1395
# assay text: relative viability (nuclei count vs DMSO), 5 days (fraction); higher = more cells survive
# study conditions: first compound 0.04 µM
Output: the number by itself.

Ask | Recall the reported relative viability of O=C(O)c1ccc(-c2c[nH]c3ncc(-c4ccccc4)cc23)cc1C1CCCC1 + Cc1cc(Nc2cc(N3CCN(C)CC3)nc(Sc3ccc(NC(=O)C4CC4)cc3)n2)n[nH]1 [Tozasertib] (partner 0.1 µM) when tested on NCI-H1395.
Reply | 0.818

Ask | # return relative viability for O=C(O)c1ccc(-c2c[nH]c3ncc(-c4ccccc4)cc23)cc1C1CCCC1 + CC(=O)c1c(C)c2cnc(Nc3ccc(N4CCNCC4)cn3)nc2n(C2CCCC2)c1=O [Palbociclib] (partner 0.5 µM) , test system: NCI-H1395
Reply | 0.567

Ask | Specify the recorded relative viability for O=C(O)c1ccc(-c2c[nH]c3ncc(-c4ccccc4)cc23)cc1C1CCCC1 + O=C(c1cc(Cc2n[nH]c(=O)c3ccccc23)ccc1F)N1CCN(C(=O)C2CC2)CC1 [Olaparib] (partner 8 µM) , system: NCI-H1395.
Reply | 0.473

Ask | Given O=C(O)c1ccc(-c2c[nH]c3ncc(-c4ccccc4)cc23)cc1C1CCCC1 + CS(=O)(=O)N1CCN(Cc2cc3nc(-c4cccc5[nH]ncc45)nc(N4CCOCC4)c3s2)CC1 [Pictilisib] (partner 1 µM) , report its relative viability on NCI-H1395.
Reply | 0.769

Ask | Provide relative viability, recorded with NCI-H1395, of O=C(O)c1ccc(-c2c[nH]c3ncc(-c4ccccc4)cc23)cc1C1CCCC1 + Nc1ncn([C@H]2C[C@H](O)[C@@H](CO)O2)c(=O)n1 [Decitabine] (partner 2 µM)
Reply | 0.727
